- Tested on: HS 578T breast
- Experiment Notes: NCI tumour cell line growth inhibition, 48 h
Property: TGI

Q) Find TGI (HS 578T breast) for the entry `Nc1ccc2c(=O)cc(-c3cccs3)[nH]c2n1`
A) > 24.9 µM

Q) Find TGI (HS 578T breast) for the entry `COc1cc(/C=C2\N=C(c3ccccc3)N(c3nc4cc(C)c(C)cc4s3)C2=O)ccc1O`
A) > 100 µM

Q) Find TGI (HS 578T breast) for the entry `COc1cc2c(cc1OC)-c1ccc3cc4c(cc3c1N(CCCn1ccnc1)C2)OCO4`
A) 40 µM

Q) Find TGI (HS 578T breast) for the entry `C1CCCCC2(CCCCCCCCC3(CCC1)OCCO3)OCCO2`
A) > 100 µM

Q) Find TGI (HS 578T breast) for the entry `COc1ccc2nccc(SCC(=O)O)c2c1`
A) > 100 µM

Q) Find TGI (HS 578T breast) for the entry C[C@]12CC[C@H](OC3OC(CO)C(O)C(O)C3O)C[C@H]1CC[C@@H]1[C@@H]2CC[C@]2(C)[C@@H](C3=CCOC3=O)CC[C@]12O (some centres undefined)
A) > 100 µM

Q) Find TGI (HS 578T breast) for the entry CC1=C(C(=O)Nc2ccc(Cl)c(Cl)c2)C(c2cccc(Cl)c2)NC(=O)N1 (centres undefined)
A) 22.6 µM

Q) Find TGI (HS 578T breast) for the entry CCC(C(=O)C(=O)C(CC)P1(=O)OC(C)(C)CN1C(C)(C)C)P1(=O)OC(C)(C)CN1C(C)(C)C (centres undefined)
A) > 100 µM

Q) Find TGI (HS 578T breast) for the entry `O=C(O)CCCSc1ccccc1`
A) > 100 µM

---

- Test system: A498 renal
- Experiment Notes: NCI tumour cell line growth inhibition, 48 h
Assignment: determine reported GI50 for the given compounds.

Q) Can you look up the measured GI50 of `O=C1NC(=O)C(c2ccccc2Cl)=C1Nc1cc(Cl)c(O)c(Cl)c1` for me?
A) > 25000 nM

Q) Can you look up the measured GI50 of `CC(C)C[C@H](NC(=O)Cn1ccc(NCc2ccccc2)cc1=O)B(O)O` for me?
A) 234 nM

Q) Can you look up the measured GI50 of Cc1nc2sc(C(=O)Nc3cccc4ccccc34)c(N)c2cc1C(O)c1ccccc1 (stereo not given) for me?
A) 20.2 nM

Q) Can you look up the measured GI50 of `COC(=O)c1cc2c3ccccc3n3c(=O)c4cc5ccccc5nc4c(n1)c23` for me?
A) > 100000 nM

Q) Can you look up the measured GI50 of Cc1cc(O)cc2c1[C@]1(C)CCC3C(C)(C)CCC[C@]3(C)[C@H]1C2 (stereo not given in full) for me?
A) 23200 nM

Q) Can you look up the measured GI50 of `COc1ccc(-c2oc(=O)ccc2-c2cc(OC)c(OC)c(OC)c2)cc1O` for me?
A) 2570 nM

Q) Can you look up the measured GI50 of `CNC(=S)NC(=O)c1c(Cl)n(C(=O)OC(C)(C)C)c2ccccc12` for me?
A) 51500 nM

Q) Can you look up the measured GI50 of `C=C1C(=O)O[C@H]2[C@H]1CC/C(COC(=O)C(=O)c1cn(C)c3ccc(Cl)cc13)=C\CC[C@@]1(C)O[C@@H]21` for me?
A) 2170 nM

Q) Can you look up the measured GI50 of NC1CCC(Nc2nc(NCc3ccc(-c4ccccc4O)nc3)c3ncn(C4CCCC4)c3n2)CC1 (stereo not given) for me?
A) 23.3 nM

Q) Can you look up the measured GI50 of `O=C(O)c1ccc(Oc2nccc(-c3c(-c4ccc(F)cc4)ncn3C3CCNCC3)n2)cc1` for me?
A) > 25000 nM

Q) Can you look up the measured GI50 of `CCN(Cc1ccccc1)c1ccc(CO)c(Cl)c1` for me?
A) 42 nM

Q) Can you look up the measured GI50 of CC(=Nc1ccccc1)C1=C(O)C(Cc2ccc(O)cc2)NC1=O (stereo not given) for me?
A) 255 nM

Q) Can you look up the measured GI50 of `COc1cccc(/C=C/[N+](=O)[O-])c1` for me?
A) 3540 nM

Q) Can you look up the measured GI50 of `CCC(=O)Nc1ccccc1C#C/C=C\C#Cc1ccccc1SC` for me?
A) 15100 nM

Q) Can you look up the measured GI50 of `Cc1ccc2c(-c3ccnc(Nc4ccccc4)n3)c(-c3ccc(F)cc3)nn2n1` for me?
A) 4780 nM

---

- System: PC-3 prostate
- Experiment Notes: NCI tumour cell line growth inhibition, 48 h
Property: TGI

Q) Can you look up the measured TGI of `Cc1ccc(NC2=C(Cl)C(=O)N(Cc3ccc(Cl)cc3)C2=O)cc1O` for me?
A) 35.6 µM

Q) Can you look up the measured TGI of `CC[C@@H]1C(=O)OC[C@@H]1Cc1cncn1C` for me?
A) > 100 µM

Q) Can you look up the measured TGI of `CCO/C=N\c1c(C#N)c(-c2ccc(Cl)cc2)cn1-c1ccc(C)cc1` for me?
A) > 100 µM

Q) Can you look up the measured TGI of `COc1cc(N2CCC(N3CCN(C)CC3)CC2)ccc1Nc1ncnc(Nc2ccccc2S(=O)(=O)C(C)C)n1` for me?
A) > 51.4 µM

Q) Can you look up the measured TGI of `CC(=C/C=C/C=C(C)\C=C\C=C(\C)C(=O)O)/C=C/C=C(/C)C(=O)O` for me?
A) > 100 µM

Q) Can you look up the measured TGI of `Clc1ccc(OCc2nnc(CCCCCCCCc3nnc(COc4ccc(Cl)cc4Cl)n3Nc3ccccc3)n2Nc2ccccc2)c(Cl)c1` for me?
A) 34.8 µM

Q) Can you look up the measured TGI of `CS(=O)(=O)CCNCc1ccc(-c2ccc3ncnc(Nc4ccc(OCc5ccccc5)c(Br)c4)c3c2)o1` for me?
A) > 25 µM

Q) Can you look up the measured TGI of `O=C1/C(=C/c2ccc(OC(=O)c3ccccc3)cc2)CCC/C1=C\c1ccc(OC(=O)c2ccccc2)cc1` for me?
A) > 100 µM

Q) Can you look up the measured TGI of `COc1ccc(/C=C2\CN(C)C/C(=C\c3ccc(OC)cc3)C2=O)cc1` for me?
A) > 100 µM

Q) Can you look up the measured TGI of `Clc1nssc1=Nc1nonc1-c1ccccc1` for me?
A) > 100 µM

Q) Can you look up the measured TGI of Nc1nc2c(c(=O)[nH]1)C(c1ccccc1)CC(=O)N2 (stereo unspecified) for me?
A) > 100 µM

Q) Can you look up the measured TGI of `COc1ccc(-c2oc(=O)ccc2-c2cc(OC)c(OC)c(OC)c2)cc1O` for me?
A) > 100 µM

Q) Can you look up the measured TGI of CC1C/C(=C\c2ccc(OC(=O)C(C)(C)C)cc2)C(=O)/C(=C/c2ccc(OC(=O)C(C)(C)C)cc2)C1 (stereo unspecified) for me?
A) > 100 µM

Q) Can you look up the measured TGI of `C1CSCCSCCSCCSC1` for me?
A) > 100 µM

Q) Can you look up the measured TGI of `O=C(N/N=C/c1c(-c2ccccc2)no[n+]1[O-])N1CCOCC1` for me?
A) > 100 µM

Q) Can you look up the measured TGI of `O=C(O)c1ccc(Oc2nccc(-c3c(-c4ccc(F)cc4)ncn3C3CCNCC3)n2)cc1` for me?
A) > 25 µM

Q) Can you look up the measured TGI of O=C1CCCCCCCCCCC1CCCCCBr (stereo unspecified) for me?
A) > 100 µM

Q) Can you look up the measured TGI of O=S(CC1(O)CCCCC1)c1ccccc1 (stereo unspecified) for me?
A) > 100 µM

Q) Can you look up the measured TGI of `CCN(CC)c1ccc2cc(C(N)=S)c(=N)oc2c1` for me?
A) > 100 µM

Q) Can you look up the measured TGI of CCC(C(=O)C(=O)C(CC)P1(=O)OC(C)(C)CN1C(C)(C)C)P1(=O)OC(C)(C)CN1C(C)(C)C (stereo unspecified) for me?
A) > 100 µM

Q) Can you look up the measured TGI of `CCCC[C@H]1[C@@H](OCOc2ccccc2)COC(=O)N1[C@H](C)c1ccccc1` for me?
A) 23.4 µM

---

- Test system: SK-OV-3 ovarian
- Experiment Notes: NCI tumour cell line growth inhibition, 48 h
Assignment: determine reported TGI for the given compounds.

Q) Can you look up the measured TGI of `COc1cc2nc(-c3cccs3)nc(N3CCN(c4ccccc4C(F)(F)F)CC3)c2cc1OC` for me?
A) > 100 µM

Q) Can you look up the measured TGI of `O=c1cc(N2CCN(CCCCCOc3cc(O)c4c(=O)cc(-c5ccccc5)oc4c3)CC2)c2ccccc2o1` for me?
A) > 100 µM

Q) Can you look up the measured TGI of `CCC(=O)Nc1ccccc1C#C/C=C\C#Cc1ccccc1SC` for me?
A) > 100 µM

Q) Can you look up the measured TGI of `COc1cc(OC)c(SSCCCCS(=O)O)c(OC)c1` for me?
A) 38.6 µM

Q) Can you look up the measured TGI of `O=C(c1ccccc1)c1c(-c2ccccc2)sc2nc3ccccc3nc12` for me?
A) > 100 µM

Q) Can you look up the measured TGI of O=C1[C@H]2ON(c3ccccc3)C(c3ccccc3)[C@H]2C(=O)N1c1ccc(Cc2ccc(N3C(=O)[C@@H]4ON(c5ccccc5)C(c5ccccc5)[C@@H]4C3=O)cc2)cc1 (stereo not given in full) for me?
A) > 100 µM

Q) Can you look up the measured TGI of `C#CCOCn1cnc2c(Sc3c([N+](=O)[O-])ncn3C)ncnc21` for me?
A) > 100 µM

Q) Can you look up the measured TGI of `C=C1C(=O)O[C@@H]2[C@@H]3O[C@@H](C[C@@H]13)[C@](C)(O)CC/C=C(\C)CCC[C@@H]2C` for me?
A) 34 µM

Q) Can you look up the measured TGI of `C1CSCCSCCSCCSC1` for me?
A) > 100 µM

Q) Can you look up the measured TGI of `O=C(Nc1ccccc1)c1cc2ccccc2c(N=Nc2ccc([N+](=O)[O-])cc2)c1O` for me?
A) > 100 µM
